Where do these numbers come from? They come from patent US20220143021A1.

- Test summary: CCK-8 viability (cytotoxicity) assay
- Format: cell-based
- Condition label: human, WPMY-1 cells (immortalized prostate stromal cells); 10 nM, 48 h; read-out: decrease of viability
- Procedure: WPMY-1 cells are an immortalized cell line obtained from human prostate stroma without prostate cancer (Webber et al., 1999). […] Viability of cells was assessed using the Cell Counting Kit-8 (CCK-8) (Sigma-Aldrich, St. Louis, Mo., USA). […] At the end of this period, 10 μl of [2-(2-methoxy-4-nitrophenyl)-3-(4-nitrophenyl)-5-(2,4-disulfophenyl)-2H-tetrazolium monosodium salt (WST-8) from CCK-8 was added, and absorbance in each well was measured at 450 nm after incubation for 2 h at 37° C.
Observable: cytotoxicity at 48 h, 10 nM
Report the figure along with its unit, number first.

[ask] Which measured cytotoxicity at 48 h, 10 nM value corresponds to CN1CCN(c2ccc(OC(F)(F)F)c(Nc3ncc4c(n3)-c3c(c(C(N)=O)nn3CCO)CC4)c2)CC1 [onvansertib] ?
[reply] 28%
